Each recorded value in this set is attributed to patent US6391329B1.

- assay.details: Vapor pressure measurement of pyrethroid compounds with the vapor pressure measuring apparatus
- reported.conditions: 30° C.
measurement.type: Vapor Pressure

> print(dat)
                                   compound            result
1  CC(C)=CC1C(C(=O)OCN2C(=O)C3=C(CCCC3)C2=O)C1(C)C (stereo not drawn) [tetramethrin]  8.5 × 10^−6 mmHg
2  CC(C)=CC1C(C(=O)OCc2cccc(Oc3ccccc3)c2)C1(C)C (mixture of isomers)  4.3 × 10^−6 mmHg
3  C=CCC1=C(C)C(OC(=O)C2C(C)(C)C2(C)C)CC1=O (racemic)  6.6 × 10^−4 mmHg
4  CC1(C)C(C=C(Cl)Cl)C1C(=O)OCc1c(F)c(F)cc(F)c1F (stereo not drawn)  2.7 × 10^−4 mmHg
5  CC(C)=CC1C(C(=O)OCN2C(=O)C3=C(CCCC3)C2=O)C1(C)C (mixture of isomers) [phthalthrin]  1.2 × 10^−7 mmHg

Go through the items and report each one's Vapor Pressure.
1. C#CCC1=C(C)C(OC(=O)C2C(C=C(C)C)C2(C)C)CC1=O (mixture of isomers)
2. CC(C)=CC1C(C(=O)OC(C#N)c2cccc(Oc3ccccc3)c2)C1(C)C (racemic)
3. CC(C)=CC1C(C(=O)OCc2coc(Cc3ccccc3)c2)C1(C)C (mixture of isomers)
4. C#CCc1ccc(COC(=O)C2C(C=C(C)C)C2(C)C)o1 (mixture of isomers)

1: 1.3 × 10^−4 mmHg; 2: 3.6 × 10^−6 mmHg; 3: 1.7 × 10^−5 mmHg; 4: 4.5 × 10^−4 mmHg

Batch request: Vapor Pressure for each of the following compounds.
1. CC1(C)C(C=C(Cl)Cl)C1C(=O)OCc1cccc(Oc2ccccc2)c1 (mixture of isomers)
2. COP(=O)(OC)OC=C(Cl)Cl
3. C#CC(OC(=O)C1C(C=C(C)C)C1(C)C)/C(C)=C/CC (mixture of isomers)

1. 1.9 × 10^−6 mmHg
2. 3.0 × 10^−2 mmHg
3. 1.6 × 10^−3 mmHg

* * *

- assay.details: Vapor pressure measurement of pyrethroid compounds with the vapor pressure measuring apparatus
- reported.conditions: 20° C.
Consider the following compounds; for each one, report its Vapor Pressure.

Below: 7 compounds and their reported Vapor Pressure.
> print(dat)
                                   compound            result
1  CC(C)=CC1C(C(=O)OCN2C(=O)C3=C(CCCC3)C2=O)C1(C)C (centres unmarked) [tetramethrin]  2.4 × 10^−6 mmHg
2  CC(C)=CC1C(C(=O)OCN2C(=O)C3=C(CCCC3)C2=O)C1(C)C (mixture of isomers) [phthalthrin]  3.5 × 10^−8 mmHg
3  C=CCC1=C(C)C(OC(=O)C2C(C)(C)C2(C)C)CC1=O (racemic) [terallethrin]  2.2 × 10^−4 mmHg
4              COP(=O)(OC)OC=C(Cl)Cl [DDVP]  1.2 × 10^−2 mmHg
5  CC1(C)C(C=C(Cl)Cl)C1C(=O)OCc1c(F)c(F)cc(F)c1F (centres unmarked) [benfluthrin]  8.3 × 10^−5 mmHg
6  C#CCC1=C(C)C(OC(=O)C2C(C=C(C)C)C2(C)C)CC1=O (mixture of isomers) [prallethrin]  3.5 × 10^−5 mmHg
7  CC(C)=CC1C(C(=O)OCc2cccc(Oc3ccccc3)c2)C1(C)C (mixture of isomers) [phenothrin]  1.2 × 10^−6 mmHg

Fill blank: measured Vapor Pressure of the compound C#CC(OC(=O)C1C(C=C(C)C)C1(C)C)/C(C)=C/CC (mixture of isomers) [empenthrin] is ____.
5.1 × 10^−4 mmHg
